I'd be grateful if you could share measured cytotoxicity at 10 µM for these entries.
experiment: Toxicity liver stage against HepG2, at 10uM; type: cell-based; parameters: test concentration 10 uM, cell line HepG2-A16-CD81EGFP; details: human, HepG2-A16-CD81EGFP cells; read-out: INHIBITION
Numbers only, in %.

1) CC(Cn1ccnc1)NC(=O)NCc1ccc2c(c1)OCCO2 (stereo not drawn) = -18.6

Hi, could you look up cytotoxicity at 10 µM for each item in my list?
1. COCCC1(C(=O)O)CCCN(C(=O)c2cc(C)oc2C)C1 (stereo not drawn)
2. Cc1cc(C)cc(C(C)NCc2nnc(C)s2)c1 (stereo not drawn)
3. O=C(NC1CCC1)[C@@H]1C[C@@H]2CCN(CCc3ccccc3)C[C@H]2O1
4. COc1ccc(-n2ccnc2-c2cnc(N(C)C)nc2)cc1OC
5. O=C(NC1CCCCC1)N1CCn2c(nnc2C2CCCN2)C1 (stereo not drawn)
6. Cc1ccc(C)c(NS(=O)(=O)c2cc3c(c(C(=O)O)c2)OCCO3)c1
7. O=C(NCCO)Nc1c(F)cc(F)cc1-c1ccccc1

A.
1: -5.89; 2: -5.77; 3: -72.7; 4: -2.4; 5: 0.336; 6: -0.882; 7: -1.99

Consider the following items and state reported cytotoxicity at 10 µM for each.
1. CS(=O)(=O)N1CCC2(CCCN(CCCc3ccccc3)C2=O)C1 (stereo not drawn)
2. O=C(NCC1CC1)c1cc(C2CC2)nc2onc(C3CCCNC3)c12 (stereo not drawn)
3. CCCn1nccc1-c1cnc(CC2CCN(C(C)=O)C2)cn1 (stereo not drawn)

A.
1. 2.46
2. 4.98
3. -6.88

Please state cytotoxicity at 10 µM for every molecule in the list that follows.
1. CCOCC(O)CN1CCN(C(=O)c2cccnc2OC)CC1 (stereo not drawn)
2. O=C(O)CCC(=O)N1CCN(CC2CC2)c2ncccc2C1

A.
1: -4.71; 2: -101

----------
Would you kindly list cytotoxicity at 10 µM for each of these molecules?
experiment: Toxicity liver stage against HepG2, at 10uM; assay type: cell-based; parameters: test concentration 10 uM, cell line HepG2-A16-CD81EGFP; details: human, HepG2-A16-CD81EGFP cells; read-out: INHIBITION
Answers are plain numbers, in %.

Worked cases, answers included:
1) Cc1noc([C@@H]2C[C@H]3OCC[C@H]3N(Cc3sccc3C)C2)n1 = -69.1
2) Cc1cnc(C(=O)N2CCOCC2c2ccccc2)cn1 (stereo not drawn) = -8.31

Please find the next molecule below.
Q. Fill in: cytotoxicity at 10 µM of `O=c1[nH]nc2c(S(=O)(=O)N3CCCC3)cccn12` is ___
A. -4.52

----------
Exercise: for every item that follows, state its recorded cytotoxicity at 10 µM.
assay: Toxicity liver stage against HepG2, at 10uM; format: cell-based; parameters: test concentration 10 uM, cell line HepG2-A16-CD81EGFP; details: human, HepG2-A16-CD81EGFP cells; read-out: INHIBITION
Kindly write the number and append the unit.

1) O=C([C@H]1C[C@H]2OCC[C@H]2N(Cc2ccccn2)C1)N1CCCCO1 = -73.3%
2) CC(C)N1CCCC(C(=O)N2CCN(c3cnn(C)c(=O)c3)CC2)C1 (stereo not drawn) = -3.75%
3) COCCOc1nc(-c2ccccc2Cl)no1 = 9.4%
4) Cc1ccc(CNCc2c(C(C)C)nn(C)c2N2CCOCC2)s1 = -3.03%
5) CCN1CCCC(O)(CNCc2ccccn2)C1 (stereo not drawn) = -5.69%
6) O=C(CNC(=O)N(Cc1ccoc1)C1CCCCC1)N1CCCC1 = -1.3%
7) COCCOC(=O)N1CCn2nc(CN(C)Cc3nccs3)cc2C1 = 1.32%
8) O=c1cc(CN2CCCC(CCc3c(F)cccc3F)C2)[nH]c(=O)[nH]1 (stereo not drawn) = -3.88%
9) CN(C)Cc1cc(=O)n2c(n1)CN(CC1CC1)CCC2 = 5.71%
10) CC(C)N(C)S(=O)(=O)c1ccc2c(c1)CCN(C(=O)c1ccccn1)C2 = 10.3%

# per-item lookup of cytotoxicity at 10 µM; items listed below
1. O=C(c1cccc(-c2ccc(F)cc2)c1)N1CCCC(O)(CO)CC1 (stereo not drawn)
2. Cc1ncsc1C(=O)N(Cc1ccccn1)C1CC1

A.
1: -4.77%; 2: -11.2%

Q. Which measured cytotoxicity at 10 µM value corresponds to Cc1cc(C(=O)NC(C)c2nnn[nH]2)c2cccc(C)c2n1 (stereo not drawn) ?
A. -16.4%
